Data provenance is ChEMBL document CHEMBL4689842.

Collected Population Pyknosed Nuclei (%) values appear next to each entry.
System: U2OS
assay.text: Multiplex assay against U2OS
Assay type: toxicity, cell-based
setup.conditions: human, 12 h, 10 µM, compound concentration 10 uM, replicate 2
Return type: number; implicit unit %.

Some entries whose results are on file:
>  <compound>
COc1ccccc1CN[C@H]1C2CCN(CC2)[C@H]1C(c1ccccc1)c1ccccc1

>  <unit.name>
%

>  <obs.value>
10

$$$$
>  <compound>
Cc1ccc2c(c1)c1c(n2CCc2ccc(C)nc2)CCN(C)C1 [LATREPIRDINE]

>  <unit.name>
%

>  <obs.value>
26

$$$$
>  <compound>
CC1=C(C(=O)Nc2cc3cn[nH]c3cc2F)C(c2ccc(C(F)(F)F)cc2)CC(=O)N1 (centres undefined)

>  <unit.name>
%

>  <obs.value>
7

$$$$

For the next question, use this compound.
Query :: Would you mind telling me what Population Pyknosed Nuclei (%) value was observed for `CN1CCN(Cc2ccc(Nc3ncc(Cl)c(Nc4ccccc4S(=O)(=O)N(C)C)n3)cc2)CC1` ?
Result :: 22
